- System: OVCAR-4 ovarian
- PROTOCOL DESCRIPTION: NCI-60 one-dose screen, 48 h
- EXPERIMENTAL CONDITIONS: 10 µM unless noted
This is part of a sample that, as a whole, favours compounds with a hit. Of some 83,000 tested, about 20% had one in any assay. Calls of active or inactive are those of the source. The calls were made as follows: active = growth percent below 10; inactive = the rest.
Possible outcomes: active, inactive

COMPOUND	GROUP
O=C(OC(OC(=O)c1cc(Cl)cc(Cl)c1)c1cccc2ccccc12)c1ccccc1 (centres undefined)	inactive
COc1ccc(Cn2nc3c(c2-c2cc(OC)c(OC)c(OC)c2)-c2oncc2CC3)cc1	inactive
O=C(O)CNC(=O)CN1C(=O)c2ccccc2C1=O	inactive
Cc1cc2cc3cc(C)c(N)cc3[n+](C)c2cc1N	inactive
O=C1Nc2ccccc2/C1=C\c1cccc(/C=C2/C(=O)Nc3ccccc32)n1	inactive
COc1ccc(Cn2nc(-c3cc(OC)c(OC)c(OC)c3)c3c2CCc2cnoc2-3)cc1OC	inactive
CCCc1cc2c(cc1Br)OCO2	inactive
Clc1cc(Cl)cc(N2N=C(c3cccc(Nc4ccncc4)c3)CC2c2ccc(Br)cc2)c1 (centres undefined)	active
COc1ccc2c(c1)OC1=C(C(=O)OC1)C2c1cc(OC)c(OC)c(OC)c1 (centres undefined)	inactive
C=C1C(=O)O[C@H]2[C@H]1CC/C(CNC(=O)/C=C/c1ccccc1F)=C\CC[C@@]1(C)O[C@@H]21	active
COC(=O)N[C@H]1CCc2cc(OC)c(OC)c(OC)c2-c2ccc(SC)c(=O)cc21	inactive
COc1ccc(C2=C(c3ccccc3)c3ccc(OC(C)=O)cc3OC2(C)C)cc1	inactive
S=c1[nH]cccc1-c1nnc2n1Nc1nc3ccccc3cc1CS2	inactive
CN(C)Cc1c(-c2ccccc2)[nH]c2ccccc12	inactive
CC(C)NC(=O)N1C(=O)CCC1NNC(=O)c1ccc([N+](=O)[O-])cc1 (centres undefined)	inactive
Cn1c(COC(=O)NCCn2ccnc2)nc2c(N3CCOCC3)nc(-c3ccccc3)nc21	active
S=c1[nH]cccc1-c1nnc2n1Nc1nc3ccc(Cl)cc3cc1CS2	inactive
CCC(=O)c1ccc(O)c(OC)c1	inactive
CS(=O)(=O)Nc1cc(-c2ccc3ncnc(Nc4ccc5[nH]ncc5c4)c3c2)cnc1Cl	inactive
COC(=O)Nc1nc2ccc(C(=O)c3cccc(I)c3)cc2[nH]1	inactive
CN1CCN(C(=O)OCc2nc3c(N4CCOCC4)nc(-c4ccccc4)nc3n2C)CC1	active
Cc1ccc2[nH]c(=S)n(-c3ccc(S(=O)(=O)Nc4ccc(Cl)nn4)cc3)c(=O)c2c1	inactive
CCN(CC)CCOC(COc1cc(C)cc(C)c1)COc1cc(C)cc(C)c1	inactive
Cn1c(COC(=O)N2CCCCC2)nc2c(N3CCOCC3)nc(-c3ccccc3)nc21	active

---

- Tested on: SK-MEL-5 melanoma
- PROTOCOL DESCRIPTION: NCI-60 one-dose screen, 48 h (100 = growth as untreated, 0 = no growth, -100 = all killed)
- EXPERIMENTAL CONDITIONS: 10 µM unless noted
The panel holds about 83,000 compounds, 20% with a hit somewhere; the sample as a whole holds those more often.

MOLECULE	MEASUREMENT TARGET	growth, %
S=c1[nH]cccc1-c1nnc2n1Nc1nc3ccc(Cl)cc3cc1CS2	SK-MEL-5 melanoma	98
CCN(CC)S(=O)(=O)c1cccc([N+](=O)[O-])c1	SK-MEL-5 melanoma	97.9
CCCCCCCCCCCCCCCC(=O)OC[C@@]1(O)C[C@@]23CC[C@@H]4C(C)(C)[C@H](O)CC[C@@]4(C)[C@@H]2CC[C@H]1C3	SK-MEL-5 melanoma	102
COc1cc(/C=C/C(=O)c2ccc(Nc3ncnc4ccccc34)cc2)cc(OC)c1	SK-MEL-5 melanoma	90.8
COc1c(Cl)cc(Cl)c2ccc(C=C3C(=O)N(C)C(=O)N(C)C3=O)nc12	SK-MEL-5 melanoma	101
CCN(CC)CCCC(C)Nc1c2c(nc3ccc(OC)cc13)CCCC2 (stereo not drawn)	SK-MEL-5 melanoma	105
CCCCc1ccc(Nc2nnc(SCC(=O)NC(=O)NCC)s2)cc1	SK-MEL-5 melanoma	103
CC(=O)c1c(-c2ccc(OC(F)(F)F)cc2)nc2ccccn12	SK-MEL-5 melanoma	96.6
Cc1cc2cc3cc(C)c(N)cc3[n+](C)c2cc1N	SK-MEL-5 melanoma	18.4
NC(=O)C1(N2CCCCC2)CCN(CCCC(=O)c2ccc(F)cc2)CC1	SK-MEL-5 melanoma	4.4
COc1cc(NCCN(CC(C)C)C2CCCC2)c2ncccc2c1	SK-MEL-5 melanoma	97.2
COc1ccc2c(/C=C3/C(=O)NC(=S)NC3C)cc(=O)oc2c1 (stereo not drawn)	SK-MEL-5 melanoma	99.4
C[C@]12CCc3nc(Nc4cccc(O)c4)sc3C1=CC[C@@H]1[C@@H]2CC[C@]2(C)/C(=N\NC(N)=S)CC[C@@H]12	SK-MEL-5 melanoma	36.7
O=C1OC(=O)C2C1CC=CC2c1ccccc1 (stereo not drawn)	SK-MEL-5 melanoma	98.6
COc1ccc(C2CC(n3nnnc3-c3ccccc3)=NN2)cc1 (stereo not drawn)	SK-MEL-5 melanoma	70.7
CC(=O)Nc1ccc(S(=O)(=O)NC2CCCCC2)cc1	SK-MEL-5 melanoma	98.2
CN(C)C(C(N)=O)c1ccc(Cl)cc1 (stereo not drawn)	SK-MEL-5 melanoma	101
COc1ccc2c(c1)OC1=C(C(=O)OC1)C2c1cc(OC)c(OC)c(OC)c1 (stereo not drawn)	SK-MEL-5 melanoma	16.1

---

Overview of recorded growth for various compounds
- Tested on: MDA-MB-231 breast
- PROTOCOL DESCRIPTION: NCI-60 one-dose screen, 48 h (100 = growth as untreated, 0 = no growth, -100 = all killed)
- EXPERIMENTAL CONDITIONS: 10 µM unless noted
- Method: Cells are grown in 96 well plates and exposed to the test compound for 48 hours. Compounds are tested at a single concentration, which is 10^-5 M for most compounds. The reported endpoint is percent growth (GI% or GIPRCNT), where numbers from 0 - 100% represent growth inhibition, and numbers from -100% - 0 represent cell death. For example, a value of 40 represents 60% growth inhibition. A value of 0 means no net growth occurred over the course of the experiment. […]
The panel holds about 83,000 compounds, 20% with a hit somewhere; the sample as a whole holds those more often.
MEASUREMENT KIND: growth (%)

COMPOUND	MEASUREMENT TARGET	VAL
CC(=O)NCCCS(=O)(=O)O	MDA-MB-231 breast	102
CCNC(=S)NNC(=O)c1cc2ccc1CCc1ccc(cc1)CC2	MDA-MB-231 breast	100
COc1ccc(C(=O)c2cc3c(N)c(C(=O)Nc4cccc(OC)c4)sc3nc2C)cc1	MDA-MB-231 breast	15.5
CCCCCCCCN1C(=O)/C(=c2\sc3n(c2=O)C2C(NN=3)N(CC)C(=O)N2CC)c2ccccc21 (stereo not given)	MDA-MB-231 breast	71.5
COc1cc2c(cc1[N+](=O)[O-])-c1ccc([N+](=O)[O-])cc1/C2=N\O	MDA-MB-231 breast	87.4
CC(=O)N1c2ccccc2NC2=C(C(=O)N(Cc3ccccc3)C2(C)C)C1c1ccco1 (stereo not given)	MDA-MB-231 breast	9.25
COc1ccccc1N1CCN(C(=O)c2ccc3nc(NC(=O)c4ccc(NCCc5ccccc5)c([N+](=O)[O-])c4)sc3c2)CC1	MDA-MB-231 breast	75.7
CC[C@H](C)[C@@H]1NC(=O)[C@H](Cc2ccc(O)cc2)N(C)C(=O)[C@H](Cc2ccccc2)NC(=O)CN(C)C(=O)[C@@H]2CCCN2C(=O)[C@@H](Cc2ccccc2)N(C)C(=O)[C@H](CC(C)C)NC1=O	MDA-MB-231 breast	-12.6
Cc1nc2sc(C(=O)Nc3cccc(Br)c3)c(N)c2cc1C(=O)c1ccc(C(F)(F)F)cc1	MDA-MB-231 breast	63.8
CC(N)C(=O)NNc1n[nH]c(=S)n1N (stereo not given)	MDA-MB-231 breast	105
COc1ccc(-c2nc(N/N=C/c3cccc(O)c3)nc(N3CCOCC3)c2C#N)cc1	MDA-MB-231 breast	74.9
C=C1C(=O)O[C@H]2[C@H]1CC/C(CNC(=O)/C=C/c1ccc(Br)cc1)=C\CC[C@@]1(C)O[C@@H]21	MDA-MB-231 breast	-80.6
O=C(Nc1ccc2cc3ccc(NC(=O)N4CCCCCC4)cc3nc2c1)N1CCCCCC1	MDA-MB-231 breast	-69.1
C#CC(=O)Nc1cccc(Nc2nc3c(c(NCc4ccccc4)n2)CCCC3)c1	MDA-MB-231 breast	-71.7
COc1ccc(C2CC(c3cccc(Nc4ccncc4)c3)=NN2c2cc(Cl)cc(Cl)c2)cc1 (stereo not given)	MDA-MB-231 breast	44.7
O=C(Nc1ccc(Cl)cc1)Nc1ccc(Cl)c(Cl)c1	MDA-MB-231 breast	37.6
O=C(Nc1ccc2cc3ccc(NC(=O)NC4CCCCC4)cc3nc2c1)NC1CCCCC1	MDA-MB-231 breast	101
O=C(/C=C\c1ccc(OCCCCCC[P+](c2ccccc2)(c2ccccc2)c2ccccc2)cc1)c1ccc2c(c1)OCCO2	MDA-MB-231 breast	2.28
CC1NC(=S)NC(=O)/C1=C/c1cc(=O)oc2c1ccc1ccccc12 (stereo not given)	MDA-MB-231 breast	95.1
CCCCCCCCCCCCCCCC(=O)OC[C@@]1(O)C[C@@]23CC[C@@H]4C(C)(C)[C@H](O)CC[C@@]4(C)[C@@H]2CC[C@H]1C3	MDA-MB-231 breast	110
